System: 349418-098-R-PDC complex spheroid viability
Assay: Anticancer human tumor 349418-098-R-PDC patient-derived lung adenocarcinoma cell line growth inhibition [RAS]
Details: second compound 0.1 µM; first compound 0.00949 µM; hits give low values
Outcome measure: viability, T/C (%)
Provide the reading as a plain figure in %.

CC1(C)CCC(Nc2ncc(C(F)(F)F)c(-c3c[nH]c4c(P(C)(C)=O)c(C#N)ccc34)n2)CN1 (centres undefined) + C#Cc1c(F)ccc2cc(O)cc(-c3ncc4c(N5CC6CCC(C5)N6)nc(OCC56CCCN5CC(F)C6)nc4c3F)c12 :: 17
CCc1c2c(nc3ccc(O)cc13)-c1cc3c(c(=O)n1C2)COC(=O)[C@]3(O)CC + C#Cc1c(F)ccc2cc(O)cc(-c3ncc4c(N5CC6CCC(C5)N6)nc(OCC56CCCN5CC(F)C6)nc4c3F)c12 :: 10.6

Reported viability, T/C, molecule CCc1c2c(nc3ccc(O)cc13)-c1cc3c(c(=O)n1C2)COC(=O)[C@]3(O)CC + C=CC(=O)N1CCN(c2nc(OCC3CCCN3C)nc3c(F)c(-c4nc(N)cc(C)c4C(F)(F)F)c(Cl)cc23)C(C)C1 : ____
10.5

Reported viability, T/C, molecule CC1(C)CCC(Nc2ncc(C(F)(F)F)c(-c3c[nH]c4c(P(C)(C)=O)c(C#N)ccc34)n2)CN1 (centres undefined) + C=CC(=O)N1CCN(c2nc(OCC3CCCN3C)nc3c(F)c(-c4nc(N)cc(C)c4C(F)(F)F)c(Cl)cc23)C(C)C1 : ____
12.4

====

System: 349418-098-R-PDC complex spheroid viability
Assay: Anticancer human tumor 349418-098-R-PDC cell line growth inhibition [RAS];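 note: spheroids exposed to compound for seven days before viability readout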
Settings: second compound 0.003 µM; first compound 0.1 µM; hits give low values
Outcome measure: viability, T/C (%)
Provide the reading as a plain figure in %.

Answered examples (2):
Cc1nc(N2CCC3(CC2)COC(C)C3N)c(CO)nc1Sc1ccnc(N)c1Cl (centres undefined) + CCn1c(-c2cccnc2C(C)OC)c2c3cc(ccc31)N1CCOC(CC(NC(=O)C(C(C)C)N(C)C(=O)C3(F)CCN(C(=O)C#CC(C)(C)N(C)C)CC3)C(=O)N3CCCC(N3)C(=O)OCC(C)(C)C2)C1 :: 91.9
CCN1CCN(Cc2ccc(Nc3ncc(F)c(-c4cc(F)c5nc(C)n(C(C)C)c5c4)n3)nc2)CC1 + CCn1c(-c2cc(N3CCN(C)CC3)cnc2C(C)OC)c2c3cc(ccc31)-c1csc(n1)CC(NC(=O)C1CC1C)C(=O)N1CCCC(N1)C(=O)OCC(C)(C)C2 :: 19.3

Report viability, T/C for C=CC(=O)Nc1cc(Nc2nccc(-c3cn(C)c4ccccc34)n2)c(OC)cc1N(C)CCN(C)C + CCn1c(-c2cc(N3CCN(C)CC3)cnc2C(C)OC)c2c3cc(ccc31)-c1csc(n1)CC(NC(=O)C1CC1C)C(=O)N1CCCC(N1)C(=O)OCC(C)(C)C2 tested on 349418-098-R-PDC complex spheroid viability.
98.7

Report viability, T/C for O=C(c1ccc(F)c(F)c1Nc1ccc(I)cc1F)N1CC(O)([C@@H]2CCCCN2)C1 + CCn1c(-c2cc(N3CCN(C)CC3)cnc2C(C)OC)c2c3cc(ccc31)-c1csc(n1)CC(NC(=O)C1CC1C)C(=O)N1CCCC(N1)C(=O)OCC(C)(C)C2 tested on 349418-098-R-PDC complex spheroid viability.
7.55

====

Test system: 349418-098-R-PDC complex spheroid viability
Test: Anticancer human tumor 349418-098-R-PDC cell line growth inhibition [RAS];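 note: spheroids exposed to compound for seven days before viability readout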
Conditions: second compound 0.3 µM; first compound 1 µM; hits give low values
A collection of compounds and their measured viability, T/C
Provide the reading as a plain figure in %.

Answered examples (3):
C=CC(=O)Nc1cc(Nc2nccc(-c3cn(C)c4ccccc34)n2)c(OC)cc1N(C)CCN(C)C + CCn1c(-c2cccnc2C(C)OC)c2c3cc(ccc31)N1CCOC(CC(NC(=O)C(C(C)C)N(C)C(=O)C3(F)CCN(C(=O)C#CC(C)(C)N(C)C)CC3)C(=O)N3CCCC(N3)C(=O)OCC(C)(C)C2)C1 :: 65.6
O=C(c1ccc(F)c(F)c1Nc1ccc(I)cc1F)N1CC(O)([C@@H]2CCCCN2)C1 + CCn1c(-c2cccnc2C(C)OC)c2c3cc(ccc31)N1CCOC(CC(NC(=O)C(C(C)C)N(C)C(=O)C3(F)CCN(C(=O)C#CC(C)(C)N(C)C)CC3)C(=O)N3CCCC(N3)C(=O)OCC(C)(C)C2)C1 :: 5.8
Cc1nc(N2CCC3(CC2)COC(C)C3N)c(CO)nc1Sc1ccnc(N)c1Cl (stereo unspecified) + CCn1c(-c2cccnc2C(C)OC)c2c3cc(ccc31)N1CCOC(CC(NC(=O)C(C(C)C)N(C)C(=O)C3(F)CCN(C(=O)C#CC(C)(C)N(C)C)CC3)C(=O)N3CCCC(N3)C(=O)OCC(C)(C)C2)C1 :: 87.8

Reported viability, T/C, compound CC1(O)CCCC1n1c(=O)c(C(F)F)cc2cnc(NC3CCN(S(C)(=O)=O)CC3)nc21 (stereo unspecified) + CCn1c(-c2cccnc2C(C)OC)c2c3cc(ccc31)N1CCOC(CC(NC(=O)C(C(C)C)N(C)C(=O)C3(F)CCN(C(=O)C#CC(C)(C)N(C)C)CC3)C(=O)N3CCCC(N3)C(=O)OCC(C)(C)C2)C1 : ____
19

Reported viability, T/C, compound NC1c2ccccc2OC12CCN(c1cnc3c(N4CCCc5ncccc54)n[nH]c3n1)CC2 (stereo unspecified) + CCn1c(-c2cccnc2C(C)OC)c2c3cc(ccc31)N1CCOC(CC(NC(=O)C(C(C)C)N(C)C(=O)C3(F)CCN(C(=O)C#CC(C)(C)N(C)C)CC3)C(=O)N3CCCC(N3)C(=O)OCC(C)(C)C2)C1 : ____
90.8

Reported viability, T/C, compound O=C(c1ccc(F)c(F)c1Nc1ccc(I)cc1F)N1CC(O)([C@@H]2CCCCN2)C1 + CCn1c(-c2cc(N3CCN(C)CC3)cnc2C(C)OC)c2c3cc(ccc31)-c1csc(n1)CC(NC(=O)C1CC1C)C(=O)N1CCCC(N1)C(=O)OCC(C)(C)C2 : ____
4.09

====

A collection of compounds and their measured viability, T/C
System: 349418-098-R-PDC complex spheroid viability
Experiment: Anticancer human tumor 349418-098-R-PDC cell line growth inhibition [RAS];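 note: spheroids exposed to compound for seven days before viability readout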
Settings: second compound 0.316 µM; first compound 0.3 µM; hits give low values
Provide the reading as a plain figure in %.

CC1(C)CCC(Nc2ncc(C(F)(F)F)c(-c3c[nH]c4c(P(C)(C)=O)c(C#N)ccc34)n2)CN1 (centres undefined) + C=CC(=O)N1CCN(c2nc(OCC3CCCN3C)nc3c(F)c(-c4nc(N)cc(C)c4C(F)(F)F)c(Cl)cc23)C(C)C1 :: 9.31

Reported viability, T/C, compound CCc1c2c(nc3ccc(O)cc13)-c1cc3c(c(=O)n1C2)COC(=O)[C@]3(O)CC + C=CC(=O)N1CCN(c2nc(OCC3CCCN3C)nc3c(F)c(-c4nc(N)cc(C)c4C(F)(F)F)c(Cl)cc23)C(C)C1 : ____
1.94

Reported viability, T/C, compound CCc1c2c(nc3ccc(O)cc13)-c1cc3c(c(=O)n1C2)COC(=O)[C@]3(O)CC + C#Cc1c(F)ccc2cc(O)cc(-c3ncc4c(N5CC6CCC(C5)N6)nc(OCC56CCCN5CC(F)C6)nc4c3F)c12 : ____
2.45

Reported viability, T/C, compound CC1(C)CCC(Nc2ncc(C(F)(F)F)c(-c3c[nH]c4c(P(C)(C)=O)c(C#N)ccc34)n2)CN1 (centres undefined) + C#Cc1c(F)ccc2cc(O)cc(-c3ncc4c(N5CC6CCC(C5)N6)nc(OCC56CCCN5CC(F)C6)nc4c3F)c12 : ____
8.25

====

A collection of molecules and their measured viability, T/C
Test system: 349418-098-R-PDC complex spheroid viability
Assay: Anticancer human tumor 349418-098-R-PDC cell line growth inhibition [RAS];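 note: spheroids exposed to compound for seven days before viability readout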
Conditions: second compound 0.3 µM; first compound 0.00316 µM; hits give low values
Provide the reading as a plain figure in %.

CCN1CCN(Cc2ccc(Nc3ncc(F)c(-c4cc(F)c5nc(C)n(C(C)C)c5c4)n3)nc2)CC1 + CCn1c(-c2cccnc2C(C)OC)c2c3cc(ccc31)N1CCOC(CC(NC(=O)C(C(C)C)N(C)C(=O)C3(F)CCN(C(=O)C#CC(C)(C)N(C)C)CC3)C(=O)N3CCCC(N3)C(=O)OCC(C)(C)C2)C1 :: 61.5

Report viability, T/C for O=C(c1ccc(F)c(F)c1Nc1ccc(I)cc1F)N1CC(O)([C@@H]2CCCCN2)C1 + CCn1c(-c2cc(N3CCN(C)CC3)cnc2C(C)OC)c2c3cc(ccc31)-c1csc(n1)CC(NC(=O)C1CC1C)C(=O)N1CCCC(N1)C(=O)OCC(C)(C)C2 tested on 349418-098-R-PDC complex spheroid viability.
11.8

Report viability, T/C for C=CC(=O)Nc1cc(Nc2nccc(-c3cn(C)c4ccccc34)n2)c(OC)cc1N(C)CCN(C)C + CCn1c(-c2cc(N3CCN(C)CC3)cnc2C(C)OC)c2c3cc(ccc31)-c1csc(n1)CC(NC(=O)C1CC1C)C(=O)N1CCCC(N1)C(=O)OCC(C)(C)C2 tested on 349418-098-R-PDC complex spheroid viability.
98.1

Report viability, T/C for CCN1CCN(Cc2ccc(Nc3ncc(F)c(-c4cc(F)c5nc(C)n(C(C)C)c5c4)n3)nc2)CC1 + CCn1c(-c2cc(N3CCN(C)CC3)cnc2C(C)OC)c2c3cc(ccc31)-c1csc(n1)CC(NC(=O)C1CC1C)C(=O)N1CCCC(N1)C(=O)OCC(C)(C)C2 tested on 349418-098-R-PDC complex spheroid viability.
88.1
